Entry source: patent US20070099915A1

target: Full-length wild type HIV-1 integrase (SF1) (Human immunodeficiency virus type 1 group M subtype B); construct: made in house; host or cells: E. coli BL21 (DE3); assay: Integrase strand-transfer scintillation proximity assay; format: biochemical; conditions: strand-transfer SPA, 246 nM integrase, 50 nM host DNA, 37° C., 50 min; read-out: IC50
// reported IC50 per item
measurementName: IC50 (nM)

compoundString: CN(Cc1cn(Cc2ccc(F)cc2)c2cnc3c(c12)CCN(O)C3=O)CC(F)(F)F
valueObserved: 7

compoundString: COCCOCc1cn(Cc2ccc(F)cc2)c2cnc3c(c12)CCN(O)C3=O
valueObserved: 14

compoundString: O=C1c2ncc3c(c(CCN4CCC(F)(F)C4)cn3Cc3ccc(F)cc3)c2CCN1O
valueObserved: 14

compoundString: O=C1c2ncc3c(c(CNC4CCOCC4)cn3Cc3ccc(F)cc3)c2CCN1O
valueObserved: 20

compoundString: Cc1cccc(COCc2cn(Cc3ccc(F)cc3)c3cnc4c(c23)CCN(O)C4=O)n1
valueObserved: 11

compoundString: CN(C)C(=O)c1cccc(-c2cn(Cc3ccc(F)cc3)c3cnc4c(=O)n(O)ccc4c23)c1
valueObserved: 37

compoundString: CCCCOCCOCc1cn(Cc2ccc(F)cc2)c2cnc3c(=O)n(O)ccc3c12
valueObserved: 10

compoundString: COC1CCN(Cc2cn(Cc3ccc(F)cc3)c3cnc4c(c23)CCN(O)C4=O)CC1
valueObserved: 21

compoundString: O=c1c2ncc3c(c(CO)cn3Cc3ccc(F)cc3)c2ccn1O
valueObserved: 38

compoundString: CCCCOCc1cn(Cc2ccc(F)cc2)c2cnc3c(c12)CCN(O)C3=O
valueObserved: 12

compoundString: CN1CCN(CCCc2cn(Cc3ccc(F)cc3)c3cnc4c(c23)CCN(O)C4=O)CC1=O
valueObserved: 14

compoundString: CN1CCN(Cc2cn(Cc3ccc(F)cc3)c3cnc4c(c23)CCN(O)C4=O)CC1
valueObserved: 28

compoundString: CN1CCN(C(=O)c2cn(Cc3ccc(F)cc3)c3cnc4c(c23)CCN(O)C4=O)CC1
valueObserved: 17

compoundString: Cc1cc2c(ncc3c2c(CN2CCCC2)cn3Cc2ccc(F)cc2)c(=O)n1O
valueObserved: 8.35

compoundString: CCn1ccnc1CN(C)Cc1cn(Cc2ccc(F)cc2)c2cnc3c(c12)CCN(O)C3=O
valueObserved: 22

compoundString: O=C1c2ncc3c(c(COCCOCc4ccccc4)cn3Cc3ccc(F)cc3)c2CCN1O
valueObserved: 12

compoundString: COCCCc1cn(Cc2ccc(F)cc2)c2cnc3c(c12)CCN(O)C3=O
valueObserved: 12

====

Test system: HIV-1 RF virus in CEM-SS cells
Assay: HIV-1 cell protection assay (XTT dye reduction)
Format: cell-based
Conditions: Human immunodeficiency virus 1, 144 h; RF strain of HIV-1, CEM-SS cells, XTT read-out after six days; read-out: EC50
Experimental: Six days later, 50 μl of XTT solution (1 mg/ml XTT tetrazolium and 20 nM phenazine methosulfate) were added to the wells and the plates were reincubated for four hours. Viability, as determined by the amount of XTT formazan produced, was quantified spectrophotometrically by absorbance at 450 nm. Data from CPE assays were expressed as the percent of formazan produced in compound-treated cells compared to formazan produced in wells of uninfected, compound-free cells. […]
// boundary case: EC50 equal to 3 nM maps to Not met; strictly smaller maps to Met

compound: N#Cc1ccc(Cn2ccc3c4c(ncc32)C(=O)N(O)CC4)cc1
testTarget: HIV-1 RF virus in CEM-SS cells
labelValue: Not met
//
compound: CN(Cc1cn(Cc2ccc(F)cc2)c2cnc3c(c12)CCN(O)C3=O)CC(F)(F)F
testTarget: HIV-1 RF virus in CEM-SS cells
labelValue: Met
//
compound: Cc1cc2c(ncc3c2c(CN2CCCC2)cn3Cc2ccc(F)cc2)c(=O)n1O
testTarget: HIV-1 RF virus in CEM-SS cells
labelValue: Met
//
compound: CC(C)N(CCOCc1cn(Cc2ccc(F)cc2)c2cnc3c(c12)CCN(O)C3=O)C(C)C
testTarget: HIV-1 RF virus in CEM-SS cells
labelValue: Not met
//
compound: O=C1c2ncc3c(ccn3Cc3ccccn3)c2CCN1O
testTarget: HIV-1 RF virus in CEM-SS cells
labelValue: Not met
//
compound: Cc1ncccc1COCc1cn(Cc2ccc(F)cc2)c2cnc3c(c12)CCN(O)C3=O
testTarget: HIV-1 RF virus in CEM-SS cells
labelValue: Met
//
compound: COCCN(Cc1cn(Cc2ccc(F)cc2)c2cnc3c(c12)CCN(O)C3=O)C(C)(C)C
testTarget: HIV-1 RF virus in CEM-SS cells
labelValue: Not met
//
compound: COCCN(C)Cc1cn(Cc2ccc(F)cc2)c2cnc3c(=O)n(O)c(C)cc3c12
testTarget: HIV-1 RF virus in CEM-SS cells
labelValue: Met
//
compound: CCCCC1Cc2c(ncc3c2ccn3Cc2ccc(F)cc2)C(=O)N1O (stereo not shown)
testTarget: HIV-1 RF virus in CEM-SS cells
labelValue: Not met
//
compound: Cc1cc2c(ncc3c2c(CN2CCOCC2)cn3Cc2ccc(F)cc2)c(=O)n1O
testTarget: HIV-1 RF virus in CEM-SS cells
labelValue: Met
//
compound: Cc1cccc(COCc2cn(Cc3ccc(F)cc3)c3cnc4c(c23)CCN(O)C4=O)n1
testTarget: HIV-1 RF virus in CEM-SS cells
labelValue: Met
//
compound: O=C1c2ncc3c(c(COCCOc4ccccc4)cn3Cc3ccc(F)cc3)c2CCN1O
testTarget: HIV-1 RF virus in CEM-SS cells
labelValue: Met
//
compound: O=C1c2ncc3c(c(CCNCCC(F)(F)F)cn3Cc3ccc(F)cc3)c2CCN1O
testTarget: HIV-1 RF virus in CEM-SS cells
labelValue: Not met
//
compound: O=C1c2ncc3[nH]ccc3c2CCN1O
testTarget: HIV-1 RF virus in CEM-SS cells
labelValue: Not met
//
compound: CN(CCCc1cn(Cc2ccc(F)cc2)c2cnc3c(c12)CCN(O)C3=O)Cc1ccccn1
testTarget: HIV-1 RF virus in CEM-SS cells
labelValue: Not met
//
compound: O=C1c2ncc3c(c(CN4C[C@@H](F)[C@H](F)C4)cn3Cc3ccc(F)cc3)c2CCN1O
testTarget: HIV-1 RF virus in CEM-SS cells
labelValue: Met
//
compound: O=C1c2ncc3c(c(COCC4CCC4)cn3Cc3ccc(F)cc3)c2CCN1O
testTarget: HIV-1 RF virus in CEM-SS cells
labelValue: Met
//
compound: CN1CCN(CCCc2cn(Cc3ccc(F)cc3)c3cnc4c(c23)CCN(O)C4=O)CC1=O
testTarget: HIV-1 RF virus in CEM-SS cells
labelValue: Not met
//
compound: COC(C)(C)CCc1cn(Cc2ccc(F)cc2)c2cnc3c(c12)CCN(O)C3=O
testTarget: HIV-1 RF virus in CEM-SS cells
labelValue: Met
//
compound: N#Cc1cn(Cc2ccc(F)cc2)c2cnc3c(c12)CCN(O)C3=O
testTarget: HIV-1 RF virus in CEM-SS cells
labelValue: Not met
//
compound: CC(=O)C1CCN(Cc2cn(Cc3ccc(F)cc3)c3cnc4c(c23)CCN(O)C4=O)CC1
testTarget: HIV-1 RF virus in CEM-SS cells
labelValue: Not met
//
compound: O=C1c2ncc3c(c(CN4CCCC(F)(F)C4)cn3Cc3ccc(F)cc3)c2CCN1O
testTarget: HIV-1 RF virus in CEM-SS cells
labelValue: Met
//
compound: CCn1ccnc1CN(C)Cc1cn(Cc2ccc(F)cc2)c2cnc3c(c12)CCN(O)C3=O
testTarget: HIV-1 RF virus in CEM-SS cells
labelValue: Not met
//
compound: COc1cccc(CCOCc2cn(Cc3ccc(F)cc3)c3cnc4c(c23)CCN(O)C4=O)c1
testTarget: HIV-1 RF virus in CEM-SS cells
labelValue: Met
//
compound: O=c1c2ncc3c(c(COCCOCc4ccccc4)cn3Cc3ccc(F)cc3)c2ccn1O
testTarget: HIV-1 RF virus in CEM-SS cells
labelValue: Not met
//
compound: Cc1cc2c(ncc3c2c(CN2CCN(C)C(=O)C2)cn3Cc2ccc(F)cc2)c(=O)n1O
testTarget: HIV-1 RF virus in CEM-SS cells
labelValue: Not met
//
compound: CCN(C)Cc1cn(Cc2ccc(F)cc2)c2cnc3c(=O)n(O)ccc3c12
testTarget: HIV-1 RF virus in CEM-SS cells
labelValue: Met
//
compound: CCCCOCCOCc1cn(Cc2ccc(F)cc2)c2cnc3c(=O)n(O)ccc3c12
testTarget: HIV-1 RF virus in CEM-SS cells
labelValue: Met
//
compound: COCCN1CCN(Cc2cn(Cc3ccc(F)cc3)c3cnc4c(c23)CCN(O)C4=O)CC1
testTarget: HIV-1 RF virus in CEM-SS cells
labelValue: Not met
//
compound: Cc1cc2c(ncc3c2c(CN2CCCCC2)cn3Cc2ccc(F)cc2)c(=O)n1O
testTarget: HIV-1 RF virus in CEM-SS cells
labelValue: Met
//
compound: CC(C)CN(C)Cc1cn(Cc2ccc(F)cc2)c2cnc3c(c12)CCN(O)C3=O
testTarget: HIV-1 RF virus in CEM-SS cells
labelValue: Met
//
compound: CC(C)COCCOCc1cn(Cc2ccc(F)cc2)c2cnc3c(c12)CCN(O)C3=O
testTarget: HIV-1 RF virus in CEM-SS cells
labelValue: Met
//
compound: O=C1c2ncc3c(c(CNCc4ccc(F)c(F)c4)cn3Cc3ccc(F)cc3)c2CCN1O
testTarget: HIV-1 RF virus in CEM-SS cells
labelValue: Met
